- assayedTarget: Mcl-1/Bim interaction (Homo sapiens (Human), UniProt Q07820)
- Sequence (Q07820 171-327): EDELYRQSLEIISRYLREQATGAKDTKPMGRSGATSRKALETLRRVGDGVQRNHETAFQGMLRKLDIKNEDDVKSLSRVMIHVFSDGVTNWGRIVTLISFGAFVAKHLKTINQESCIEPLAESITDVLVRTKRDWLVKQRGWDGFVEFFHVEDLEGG
- assayDetails: Cell Free Mcl-1: Bim Affinity Assay (Mcl-1 HTRF)
- conditionContext: TR-FRET, recombinant human Mcl-1(171-327), biotin-Bim(51-76); read-out: Mel-1 HTRF IC50
metricName: IC50 (nM)

The cases that follow already have their IC50 on record.
compound | assayedTarget | IC50 (nM)
C[C@@H]1[C@@H](C)CCC[C@H]([C@H]2OC[C@H](O)CO2)[C@@H]2CC[C@H]2CN2C[C@@]3(CCCc4cc(Cl)ccc43)COc3ccc(cc32)C(=O)NS1(=O)=O [Example 12] | Mcl-1/Bim interaction (Homo sapiens (Human), UniProt Q07820) | 0.382
CCN(CC)[C@H]1CO[C@H]([C@H]2CCC[C@H](C)[C@@H](C)S(=O)(=O)NC(=O)c3ccc4c(c3)N(C[C@@H]3CC[C@H]32)C[C@@]2(CCCc3cc(Cl)ccc32)CO4)OC1 | Mcl-1/Bim interaction (Homo sapiens (Human), UniProt Q07820) | 0.477

A. C[C@@H]1[C@@H](C)CCC[C@H]([C@H]2OC[C@@H](N3CCCC3)CO2)[C@@H]2CC[C@H]2CN2C[C@@]3(CCCc4cc(Cl)ccc43)COc3ccc(cc32)C(=O)NS1(=O)=O [Example 22]
B. C[C@@H]1[C@@H](C)CCC[C@H]([C@H]2OC[C@@H](N3CCCC3)CO2)[C@@H]2CC[C@H]2CN2C[C@@]3(CCCc4cc(Cl)ccc43)COc3ccc(cc32)C(=O)NS1(=O)=O [Example 19]
C. CC(=O)N1C[C@@H]2O[C@H]([C@H]3CCC[C@H](C)[C@@H](C)S(=O)(=O)NC(=O)c4ccc5c(c4)N(C[C@@H]4CC[C@H]43)C[C@@]3(CCCc4cc(Cl)ccc43)CO5)O[C@@H]2C1 [Example 37]
Output the entries ranked by IC50 from maximum down to minimum. Respond with an ordered listing of the labels, as requested.
B, A, C
(B: 1.05 nM, A: 0.444 nM, C: 0.098 nM)

----------
- assayedTarget: Mcl-1/Bim interaction (Homo sapiens (Human))
- assayDetails: Cell Free Mcl-1: Bim Affinity Assay (Mcl-1 HTRF)
- conditionContext: TR-FRET, recombinant human Mcl-1(171-327), biotin-Bim(51-76); read-out: Mel-1 HTRF IC50
metricName: IC50 (nM)

These recorded examples may help you get a feel for the data.
compound | assayedTarget | IC50, nM
C[C@@H]1[C@@H](C)CCC[C@@H]([C@H]2OC[C@@H](N3CC(O)C3)CO2)[C@@H]2CC[C@H]2CN2C[C@@]3(CCCc4cc(Cl)ccc43)COc3ccc(cc32)C(=O)NS1(=O)=O (single isomer, unassigned) [Example 61] | Mcl-1/Bim interaction (Homo sapiens (Human)) | 0.455
CC(=O)N1C[C@@H]2O[C@@H]([C@H]3CCC[C@H](C)[C@@H](C)S(=O)(=O)NC(=O)c4ccc5c(c4)N(C[C@@H]4CC[C@H]43)C[C@@]3(CCCc4cc(Cl)ccc43)CO5)O[C@@H]2C1 [Example 38] | Mcl-1/Bim interaction (Homo sapiens (Human)) | 0.537
C[C@@H]1[C@@H](C)CCC[C@H]([C@H]2OC[C@H](O)CO2)[C@@H]2CC[C@H]2CN2C[C@@]3(CCCc4cc(Cl)ccc43)COc3ccc(cc32)C(=O)NS1(=O)=O [Example 13] | Mcl-1/Bim interaction (Homo sapiens (Human)) | 0.555
COC[C@H]1[C@@H](C)CCC[C@H]([C@H]2OC[C@@H](N(C)C)CO2)[C@@H]2CC[C@H]2CN2C[C@@]3(CCCc4cc(Cl)ccc43)COc3ccc(cc32)C(=O)NS1(=O)=O [Example 88] | Mcl-1/Bim interaction (Homo sapiens (Human)) | 4.37
C[C@@H]1[C@@H](C)CCCC(C2OCC(CO)(N(C)C)CO2)[C@@H]2CC[C@H]2CN2C[C@@]3(CCCc4cc(Cl)ccc43)COc3ccc(cc32)C(=O)NS1(=O)=O (single isomer, unassigned) | Mcl-1/Bim interaction (Homo sapiens (Human)) | 0.448

a. C[C@@H]1[C@@H](C)CCC[C@H]([C@H]2OC[C@@](CO)(N(C)C)CO2)[C@@H]2CC[C@H]2CN2C[C@@]3(CCCc4cc(Cl)ccc43)COc3ccc(cc32)C(=O)NS1(=O)=O (relative stereo)
b. C[C@@H]1[C@@H](C)CCC[C@H]([C@H]2OC[C@H](N)CO2)[C@@H]2CC[C@H]2CN2C[C@@]3(CCCc4cc(Cl)ccc43)COc3ccc(cc32)C(=O)NS1(=O)=O (relative stereo) [Example 17]
c. C[C@@H]1[C@@H](C)CCC[C@H](C2OCCO2)[C@@H]2CC[C@H]2CN2C[C@@]3(CCCc4cc(Cl)ccc43)COc3ccc(cc32)C(=O)NS1(=O)=O [Example 4]
d. CO[C@H]1CO[C@@H]([C@@H]2CCC[C@H](C)[C@@H](C)S(=O)(=O)NC(=O)c3ccc4c(c3)N(C[C@@H]3CC[C@H]32)C[C@@]2(CCCc3cc(Cl)ccc32)CO4)OC1 (single isomer, unassigned) [Example 26]
Rank by IC50 (largest to smallest). List the labels according to the requested ordering.
d, a, c, b
